# STUDY SYSTEM: human A1-adenosine receptor (Homo sapiens)
# Sequence (P30542 whole entry): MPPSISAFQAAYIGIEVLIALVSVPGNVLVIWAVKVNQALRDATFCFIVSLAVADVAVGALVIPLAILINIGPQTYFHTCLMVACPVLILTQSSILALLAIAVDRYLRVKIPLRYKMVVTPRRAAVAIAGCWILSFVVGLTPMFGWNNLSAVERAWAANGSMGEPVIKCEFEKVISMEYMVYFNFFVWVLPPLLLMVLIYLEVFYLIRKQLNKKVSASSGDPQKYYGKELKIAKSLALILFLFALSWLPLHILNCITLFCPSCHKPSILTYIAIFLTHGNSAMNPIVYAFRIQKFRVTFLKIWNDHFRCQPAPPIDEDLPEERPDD
# ASSAY PROTOCOL: Functional assay measuring the cAMP level in CHO cells expressing the human A1-adenosine receptor
PARAMETER: IC50

Exercise: Hi! What's the reported IC50 for Nc1scc(CN2CCN(c3ccc(Cl)cc3)CC2)c1C(=O)c1ccc(Cl)cc1 [Example 4] on human A1-adenosine receptor (Homo sapiens)?
Solution: ~0.1 µM
